Source: patent US7129238B2

target: factor VIIa/tissue factor complex (Homo sapiens, UniProt P08709); construct: 9 nM of soluble factor VIIa; test: inhibition of the amidolytic activity of factor VIIa/tissue factor complex (chromogenic peptide substrate); format: biochemical; settings: soluble factor VIIa, substrate Chromozym-tPA, pH 7.5, room temperature
Sequence (P08709 213-466 limits assumed): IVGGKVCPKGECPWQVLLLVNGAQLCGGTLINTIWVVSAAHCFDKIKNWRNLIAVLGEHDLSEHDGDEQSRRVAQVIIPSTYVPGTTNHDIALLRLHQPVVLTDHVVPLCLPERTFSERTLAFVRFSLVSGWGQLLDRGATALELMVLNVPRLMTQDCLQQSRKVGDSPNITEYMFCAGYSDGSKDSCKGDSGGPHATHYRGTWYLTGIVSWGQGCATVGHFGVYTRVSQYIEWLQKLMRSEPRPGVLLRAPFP
Sequence (P08709 61-212 limits assumed): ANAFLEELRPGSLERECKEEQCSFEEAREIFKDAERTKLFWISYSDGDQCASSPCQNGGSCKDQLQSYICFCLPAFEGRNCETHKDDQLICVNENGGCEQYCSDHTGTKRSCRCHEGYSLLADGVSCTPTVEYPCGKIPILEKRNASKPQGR
Sequence (P13726 33-295 partner): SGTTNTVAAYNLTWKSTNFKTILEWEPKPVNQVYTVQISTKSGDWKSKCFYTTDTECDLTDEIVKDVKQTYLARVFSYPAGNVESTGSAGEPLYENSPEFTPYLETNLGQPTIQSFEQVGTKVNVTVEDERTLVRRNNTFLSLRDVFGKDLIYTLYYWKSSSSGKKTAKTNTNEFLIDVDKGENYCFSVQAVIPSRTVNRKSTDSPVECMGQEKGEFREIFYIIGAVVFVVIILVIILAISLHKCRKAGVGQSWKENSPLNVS
Where a name gives a salt, the structure may show the parent alone.
Please go through the items and note down their pKi.
Numbers only, as −log10 of the molar value.

The cases that follow already have their pKi on record.
CCOC(C(=O)NCc1ccc(C(=N)N)cc1NCC(=O)O)c1ccc(OC)cc1F (racemic); 6.92
CCOC(C(=O)NCc1ccc(C(=N)N)cc1NCc1ccccc1)c1ccc(OC)cc1F (racemic) [Example 323, acetate]; 7.19
CCOC(C(=O)NCc1ccc(C(=N)N)cc1)c1c(F)cc(-c2cnc(N)nc2)cc1F (racemic) [Example 266, hydrochloride]; 6.62

Value sought for every listed molecule: pKi.
1. COc1cc(F)c(C(OC)C(=O)NCc2ccc(C(=N)N)cc2)cc1OC (racemic) [Example 24.3, hydrochloride]
2. COc1ccc2cc(C(OC)C(=O)NCc3ccc(C(=N)N)cc3)ccc2c1 (racemic) [Example 53.3, hydrochloride]
3. COc1cc(F)c(C(OC)C(=O)NCc2ccc(C(=N)N)cc2OCc2ccccn2)c(F)c1 (racemic) [Example 141, hydrochloride]
4. COC(C(=O)NCc1ccc(C(=N)N)cc1)c1ccc(OCCc2ccc(F)cc2)cc1F (racemic) [Example 72.2, hydrochloride]
5. CCOC(C(=O)NCc1ccc(C(=N)N)cc1OCC(N)=O)c1c(F)cc(OC)cc1F (racemic) [Example 126.3, hydrochloride]
6. CCOc1ccc(C(OC)C(=O)NCc2ccc(C(=N)N)cc2)c(F)c1OCC (racemic) [Example 33.3, hydrochloride]
7. CCOC(C(=O)NCc1ccc(C(=N)N)cc1)c1c(F)cc(-c2cccnc2)cc1F (racemic)
8. CCOC(C(=O)NCc1ccc(C(=N)N)cc1OCC(=O)NCCOC)c1c(F)cc(OC)cc1F (racemic) [Example 129, hydrochloride]

Result:
1. 5.66
2. 5.65
3. 7.36
4. 5.68
5. 7.70
6. 6.31
7. 6.43
8. 7.68
